# credit: paper PMC10901194

Catalogue of IC50 readings, one per entry.
biological target: PBP1b (Streptococcus pneumoniae); assay: PBP1b inhibition, hydrolysis of thioester substrate analogue (residual activity, IC50); assay type: biochemical; settings: PBP1b 0.8 µM, 60 min preincubation at 25 °C, thioester substrate; read-out: IC50

{"Compound": "O=C(c1ccn(-c2cccc([N+](=O)[O-])c2)n1)N1CCC(B(O)O)C1 (centres unmarked)", "IC50 (µM)": 206}
{"Compound": "CC(NC(=O)c1ccc(B(O)O)cc1)C1CCC(F)(F)CC1 (centres unmarked)", "IC50 (µM)": 127}
{"Compound": "O=Cc1cc(C(F)(F)F)ccc1B(O)O", "IC50 (µM)": 200}
{"Compound": "O=C(NCB(O)O)c1ccccc1F [Compound 9, reference compound]", "IC50 (µM)": 28.2}
{"Compound": "O=Cc1ccccc1B(O)O", "IC50 (µM)": 119}

====

target: PBP1b (Streptococcus pneumoniae, UniProt Q7CRA4); experiment: PBP1b inhibition, hydrolysis of thioester substrate analogue (residual activity, IC50); assay type: biochemical; details: 1 h, pH 7, residual activity at 500 µM inhibitor, 60 min preincubation; read-out: RA [%] @500 µM
We use 60% as the dividing line for activity at 500 µM: on or above the line is Fulfilled, below is Not fulfilled.

{"Compound": "CC1(C)OB(c2ccccc2CNc2ccccc2C=O)OC1(C)C [Compound 32]", "Assigned label": "Fulfilled"}
{"Compound": "Cn1cc(C(=O)N2CCC(B(O)O)C2)nn1 (centres unmarked) [Compound 6]", "Assigned label": "Fulfilled"}
{"Compound": "CC1(C)OB(C(CC(=O)Nc2ccccc2)NC(=O)c2ccccc2F)OC1(C)C (centres unmarked) [Compound 17]", "Assigned label": "Not fulfilled"}
{"Compound": "O=Cc1ccccc1NCc1ccccc1B(O)O [Compound 33]", "Assigned label": "Not fulfilled"}

====

target: UniProt:Q7CRA4; assay: PBP1b inhibition, hydrolysis of thioester substrate analogue (residual activity, IC50); format: biochemical

{"Smiles code": "O=Cc1ccccc1B(O)O", "Subject of test": "UniProt:Q7CRA4", "PBP1b inhibition (in words)": "inhibitors of PBP1b"}
{"Smiles code": "O=Cc1cc(C(F)(F)F)ccc1B(O)O", "Subject of test": "UniProt:Q7CRA4", "PBP1b inhibition (in words)": "inhibitors of PBP1b"}

====

target: PBP1b (Streptococcus pneumoniae, UniProt Q7CRA4); test: PBP1b inhibition, hydrolysis of thioester substrate analogue (residual activity, IC50); type: biochemical; details: 1 h, pH 7, residual activity at 500 µM inhibitor, 60 min preincubation; read-out: RA [%] @500 µM

{"Compound": "O=C(NC(CC(=O)N(Cc1ccccc1)Cc1ccccc1)B(O)O)c1ccccc1F (stereo not shown) [Compound 19]", "Unit spec": "%", "activity at 500 µM": 68.9}
{"Compound": "CC1(C)OB(C(CC(=O)N(Cc2ccccc2)Cc2ccccc2)NC(=O)c2ccccc2F)OC1(C)C (stereo not shown) [Compound 18]", "Unit spec": "%", "activity at 500 µM": 66.3}
{"Compound": "CCC(=O)Nc1cccc(C(=O)N2CCC(B(O)O)C2)c1 (stereo not shown) [Compound 5]", "Unit spec": "%", "activity at 500 µM": 85.7}
{"Compound": "Cc1cc(C(=O)N2CCC(B(O)O)C2)ccn1 (stereo not shown) [Compound 3]", "Unit spec": "%", "activity at 500 µM": 86.3}
